Reported human CTGF koff values follow for various molecules
- targetEntity: T1, human CTGF (Homo sapiens, UniProt P29279)
- T1 construct: purchased Creative Biomart
- T1 sequence (P29279 with tags, fused parts or gaps H83D): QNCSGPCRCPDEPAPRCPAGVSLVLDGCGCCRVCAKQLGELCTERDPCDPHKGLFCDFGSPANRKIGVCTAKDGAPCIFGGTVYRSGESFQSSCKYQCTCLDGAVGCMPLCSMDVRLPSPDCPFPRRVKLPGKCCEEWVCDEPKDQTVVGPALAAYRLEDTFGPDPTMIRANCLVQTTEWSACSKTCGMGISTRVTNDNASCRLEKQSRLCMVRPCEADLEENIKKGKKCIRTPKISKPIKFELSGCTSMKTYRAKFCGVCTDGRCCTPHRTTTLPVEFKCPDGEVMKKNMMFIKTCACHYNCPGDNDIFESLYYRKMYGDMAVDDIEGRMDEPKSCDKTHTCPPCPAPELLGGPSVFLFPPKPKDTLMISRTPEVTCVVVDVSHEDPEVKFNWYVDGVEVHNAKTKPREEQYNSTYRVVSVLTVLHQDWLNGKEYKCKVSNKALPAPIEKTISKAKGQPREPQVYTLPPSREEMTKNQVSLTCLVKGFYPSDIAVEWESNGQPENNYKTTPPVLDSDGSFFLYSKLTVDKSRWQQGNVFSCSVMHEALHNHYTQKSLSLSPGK
- methodDescription: SPR binding kinetics and affinity, human CTGF
- details: 25° C., 1:1 binding model
Response body: numeric value in s⁻¹, unit text excluded.

Solved entries:
molecule="SEQ ID NO: 35: optimized CTGF-binding hNGAL lipocalin mutein (protein, lipocalin mutein) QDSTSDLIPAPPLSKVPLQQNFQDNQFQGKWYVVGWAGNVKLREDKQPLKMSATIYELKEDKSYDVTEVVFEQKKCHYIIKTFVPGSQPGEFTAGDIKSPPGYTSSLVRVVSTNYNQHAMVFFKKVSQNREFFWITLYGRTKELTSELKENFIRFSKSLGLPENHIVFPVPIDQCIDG" endpointvalue=5.94e-05
molecule="SEQ ID NO: 19: optimized CTGF-binding hNGAL lipocalin mutein (protein, lipocalin mutein) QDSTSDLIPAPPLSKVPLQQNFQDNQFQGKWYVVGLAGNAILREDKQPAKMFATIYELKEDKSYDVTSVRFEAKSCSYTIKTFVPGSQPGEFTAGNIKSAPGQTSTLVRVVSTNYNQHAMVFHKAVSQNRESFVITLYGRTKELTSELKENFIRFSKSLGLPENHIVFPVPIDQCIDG" endpointvalue=5.2e-05
molecule="SEQ ID NO: 16: optimized CTGF-binding hNGAL lipocalin mutein (protein, lipocalin mutein) QDSTSDLIPAPPLSKVPLQQNFQDNQFQGKWYVVGLAGNAILRTDKQPAKMFATIYELKEDKSYDVTSVRFEAKSCVYTIKTFVPGSQPGEFTAGNIKSAPGQTSTLVRVVSTNYNQHAMVFFKHVSQNREFFVITLYGRTKELTSELKENFIRFSKSLGLPENHIVFPVPIDQCIDG" endpointvalue=7.02e-05
molecule="SEQ ID NO: 31: optimized CTGF-binding hNGAL lipocalin mutein (protein, lipocalin mutein) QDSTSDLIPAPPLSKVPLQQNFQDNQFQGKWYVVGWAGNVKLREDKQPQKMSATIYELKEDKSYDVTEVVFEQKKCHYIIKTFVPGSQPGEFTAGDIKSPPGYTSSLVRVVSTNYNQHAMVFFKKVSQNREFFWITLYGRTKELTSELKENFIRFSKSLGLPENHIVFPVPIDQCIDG" endpointvalue=4.85e-05
molecule="SEQ ID NO: 29: parent CTGF-binding hNGAL lipocalin mutein (protein, lipocalin mutein) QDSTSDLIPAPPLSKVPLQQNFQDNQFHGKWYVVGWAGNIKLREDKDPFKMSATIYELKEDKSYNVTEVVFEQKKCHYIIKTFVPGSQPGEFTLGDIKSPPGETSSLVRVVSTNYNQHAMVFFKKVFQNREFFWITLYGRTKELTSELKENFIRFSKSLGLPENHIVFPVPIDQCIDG" endpointvalue=0.00112

Query block: Reported human CTGF koff, molecule SEQ ID NO: 36: optimized CTGF-binding hNGAL lipocalin mutein (protein, lipocalin mutein) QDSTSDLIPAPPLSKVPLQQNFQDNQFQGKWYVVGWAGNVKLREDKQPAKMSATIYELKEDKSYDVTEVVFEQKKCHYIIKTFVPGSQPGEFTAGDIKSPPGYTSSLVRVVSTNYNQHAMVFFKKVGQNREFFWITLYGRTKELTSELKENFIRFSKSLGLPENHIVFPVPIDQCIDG : ____
Result block: 6.95e-05

Query block: Reported human CTGF koff, molecule SEQ ID NO: 27: optimized CTGF-binding hNGAL lipocalin mutein (protein, lipocalin mutein) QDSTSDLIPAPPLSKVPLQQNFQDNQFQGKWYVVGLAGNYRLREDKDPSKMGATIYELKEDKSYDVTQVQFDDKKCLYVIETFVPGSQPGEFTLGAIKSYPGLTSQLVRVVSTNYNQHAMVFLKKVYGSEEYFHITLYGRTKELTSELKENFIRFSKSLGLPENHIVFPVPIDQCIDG : ____
Result block: 2.45e-05

Query block: Reported human CTGF koff, molecule SEQ ID NO: 5: optimized CTGF-binding hNGAL lipocalin mutein (protein, lipocalin mutein) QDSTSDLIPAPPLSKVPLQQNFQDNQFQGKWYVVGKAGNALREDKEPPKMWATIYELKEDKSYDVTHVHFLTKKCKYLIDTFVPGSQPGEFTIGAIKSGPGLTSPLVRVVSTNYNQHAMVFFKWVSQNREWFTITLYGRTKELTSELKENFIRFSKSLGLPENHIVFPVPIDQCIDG : ____
Result block: 6.65e-05

Query block: Reported human CTGF koff, molecule SEQ ID NO: 21: optimized CTGF-binding hNGAL lipocalin mutein (protein, lipocalin mutein) QDSTSDLIPAPPLSKVPLQQNFQDNQFQGKWYVVGLAGNAILREDKQPAKMFATIYELKEDKSYDVTSVRFEAKSCSYTIKTFVPGSQPGEFTAGNIKSAPGQTSTLVRVVSTNYNQHAMVFFKAVRGARESFNIALYGRTKELTSELKENFIRFSKSLGLPENHIVFPVPIDQCIDG : ____
Result block: 6.63e-05

Query block: Reported human CTGF koff, molecule SEQ ID NO: 26: optimized CTGF-binding hNGAL lipocalin mutein (protein, lipocalin mutein) QDSTSDLIPAPPLSKVPLQQNFQDNQFQGKWYVVGLAGNYRLREDKDPSKMGATIYELKEDKSYDVTQVQFDDKKCLYVIETFVPGSQPGEFTLGNIKVYPTLESQLVRVVSTNYNQHAMVFFKKVYQNREVFWITLYGRTKELTSELKENFIRFSKSLGLPENHIVFPVPIDQCIDG : ____
Result block: 3.06e-05
